TESTED ON: D(2) dopamine receptor (Homo sapiens)
TEST DESCRIPTION: Negative allosteric modulation of human D2LR expressed in Flp-In-CHO cells assessed as inhibition of dopamine-indued ERK1/2 phosphorylation by measuring negative co-operativity factor preincubated for 30 mins followed by dopamine addition and measured after 5 mins by AlphaScreen assay
Assay type: cell-based
READOUT NAME: log(activity)

INSERT INTO assay_data (structure, tested_on, recorded_measurement) VALUES
  ('N#Cc1ccc2c(c1)CN(CC[C@H]1CC[C@H](NC(=O)c3cc4ccccn4n3)CC1)CC2', 'D(2) dopamine receptor (Homo sapiens)', -1.52),
  ('N#Cc1ccc2c(c1)CN(CC[C@H]1CC[C@H](NC(=O)c3cc4cccnc4[nH]3)CC1)CC2', 'D(2) dopamine receptor (Homo sapiens)', -1.42),
  ('N#Cc1ccc2c(c1)CN(CC[C@H]1CC[C@H](NC(=O)c3cc4ccc(F)cc4[nH]3)CC1)CC2', 'D(2) dopamine receptor (Homo sapiens)', -1.19),
  ('N#Cc1ccc2c(c1)CN(CC[C@H]1CC[C@H](NC(=O)c3cc4ccncc4[nH]3)CC1)CC2', 'D(2) dopamine receptor (Homo sapiens)', -3.26),
  ('N#Cc1ccc2c(c1)CN(CC[C@H]1CC[C@H](NC(=O)c3cc4c(F)cccc4[nH]3)CC1)CC2', 'D(2) dopamine receptor (Homo sapiens)', -1.5),
  ('N#Cc1ccc2c(c1)CN(CC[C@H]1CC[C@H](NC(=O)c3cc4cccc(F)c4[nH]3)CC1)CC2', 'D(2) dopamine receptor (Homo sapiens)', -1.79),
  ('COc1cccc2[nH]c(C(=O)N[C@H]3CC[C@H](CCN4CCc5ccc(C#N)cc5C4)CC3)cc12', 'D(2) dopamine receptor (Homo sapiens)', -0.52),
  ('N#Cc1ccc2c(c1)CN(CC[C@H]1CC[C@H](NC(=O)c3c[nH]c4ncccc34)CC1)CC2', 'D(2) dopamine receptor (Homo sapiens)', -1.5);

====

Recorded log(activity) for the following compounds
TESTED ON: D(2) dopamine receptor (Homo sapiens)
TEST DESCRIPTION: Negative allosteric modulation of human D2LR expressed in Flp-In-CHO cells assessed as inhibition of dopamine-indued ERK1/2 phosphorylation by measuring negative co-operativity factor preincubated for 30 mins followed by dopamine addition and measured after 5 mins by AlphaScreen assay
Type: cell-based
READOUT NAME: log(activity)

INSERT INTO measurements (structure, readout_name, recorded_measurement) VALUES
  ('N#Cc1ccc2c(c1)CN(CC[C@H]1CC[C@H](NC(=O)c3cc4cc(F)ccc4[nH]3)CC1)CC2', 'log(activity)', -1.8),
  ('N#Cc1ccc2c(c1)CN(CC[C@H]1CC[C@H](NC(=O)c3c[nH]c4cnccc34)CC1)CC2', 'log(activity)', -2.44),
  ('N#Cc1ccc2c(c1)CN(CC[C@H]1CC[C@H](NC(=O)c3cnc4ccccn34)CC1)CC2', 'log(activity)', -2.31);

====

Recorded Kb for the following compounds
TESTED ON: D(2) dopamine receptor (Homo sapiens)
TEST DESCRIPTION: Negative allosteric modulation of human D2LR expressed in Flp-In-CHO cells assessed as inhibition of dopamine-indued ERK1/2 phosphorylation preincubated for 30 mins followed by dopamine addition and measured after 5 mins by AlphaScreen assay
Assay type: cell-based
READOUT NAME: Kb (µM)

INSERT INTO results (structure, recorded_measurement) VALUES
  ('N#Cc1ccc2c(c1)CN(CC[C@H]1CC[C@H](NC(=O)c3c[nH]c4ccccc34)CC1)CC2', 0.063),
  ('COc1ccc2cc(C(=O)N[C@H]3CC[C@H](CCN4CCc5ccc(C#N)cc5C4)CC3)[nH]c2c1', 0.025),
  ('N#Cc1ccc2c(c1)CN(CC[C@H]1CC[C@H](NC(=O)c3cc4cccc(F)c4[nH]3)CC1)CC2', 0.0045),
  ('N#Cc1ccc2c(c1)CN(CC[C@H]1CC[C@H](NC(=O)c3cc4c(F)cccc4[nH]3)CC1)CC2', 0.047),
  ('N#Cc1ccc2c(c1)CN(CC[C@H]1CC[C@H](NC(=O)c3cnn4ccccc34)CC1)CC2', 0.04),
  ('N#Cc1ccc2c(c1)CN(CC[C@H]1CC[C@H](NC(=O)c3c[nH]c4cnccc34)CC1)CC2', 0.01),
  ('N#Cc1ccc2c(c1)CN(CC[C@H]1CC[C@H](NC(=O)c3cc4sccc4[nH]3)CC1)CC2', 0.087),
  ('N#Cc1ccc2c(c1)CN(CC[C@H]1CC[C@H](NC(=O)c3c[nH]c4ncccc34)CC1)CC2', 0.034);

====

Recorded Activity for the following compounds
TESTED ON: D(2) dopamine receptor (Homo sapiens) (UniProt P14416)
Sequence (P14416 whole entry): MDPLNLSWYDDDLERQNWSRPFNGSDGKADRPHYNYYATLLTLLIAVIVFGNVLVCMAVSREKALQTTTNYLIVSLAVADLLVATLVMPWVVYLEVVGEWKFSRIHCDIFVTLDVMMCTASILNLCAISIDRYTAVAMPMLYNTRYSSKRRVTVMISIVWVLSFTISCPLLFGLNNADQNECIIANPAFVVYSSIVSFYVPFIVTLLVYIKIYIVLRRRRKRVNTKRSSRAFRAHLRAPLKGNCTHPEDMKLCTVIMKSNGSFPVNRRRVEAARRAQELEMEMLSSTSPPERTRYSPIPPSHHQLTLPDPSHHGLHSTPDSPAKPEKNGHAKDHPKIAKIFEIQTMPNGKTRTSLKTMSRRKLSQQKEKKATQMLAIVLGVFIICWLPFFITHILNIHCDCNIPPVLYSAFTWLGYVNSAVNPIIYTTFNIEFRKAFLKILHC
TEST DESCRIPTION: Negative allosteric modulation of human D2LR expressed in Flp-In-CHO cells assessed as inhibition of dopamine-indued ERK1/2 phosphorylation by measuring negative co-operativity factor preincubated for 30 mins followed by dopamine addition and measured after 5 mins by AlphaScreen assay
Assay type: cell-based
READOUT NAME: Activity

INSERT INTO results (structure, recorded_measurement) VALUES
  ('N#Cc1ccc2c(c1)CN(CC[C@H]1CC[C@H](NC(=O)c3cc4ccccn4n3)CC1)CC2', 0.03),
  ('N#Cc1ccc2c(c1)CN(CC[C@H]1CC[C@H](NC(=O)c3cc4ccc(F)cc4[nH]3)CC1)CC2', 0.065),
  ('N#Cc1ccc2c(c1)CN(CC[C@H]1CC[C@H](NC(=O)c3c[nH]c4ncccc34)CC1)CC2', 0.032);

====

TESTED ON: D(2) dopamine receptor (Homo sapiens)
TEST DESCRIPTION: Negative allosteric modulation of human D2LR expressed in Flp-In-CHO cells assessed as inhibition of dopamine-indued ERK1/2 phosphorylation by measuring negative co-operativity factor preincubated for 30 mins followed by dopamine addition and measured after 5 mins by AlphaScreen assay
Type: cell-based
READOUT NAME: Activity

INSERT INTO measurements (structure, recorded_measurement) VALUES
  ('N#Cc1ccc2c(c1)CN(CC[C@H]1CC[C@H](NC(=O)c3cc4cccc(F)c4[nH]3)CC1)CC2', 0.016),
  ('N#Cc1ccc2c(c1)CN(CC[C@H]1CC[C@H](NC(=O)c3cnc4ccccn34)CC1)CC2', 0.0048),
  ('N#Cc1ccc2c(c1)CN(CC[C@H]1CC[C@H](NC(=O)c3cc4cc(F)ccc4[nH]3)CC1)CC2', 0.016),
  ('N#Cc1ccc2c(c1)CN(CC[C@H]1CC[C@H](NC(=O)c3cc4c(F)cccc4[nH]3)CC1)CC2', 0.032),
  ('COc1cccc2[nH]c(C(=O)N[C@H]3CC[C@H](CCN4CCc5ccc(C#N)cc5C4)CC3)cc12', 0.3),
  ('N#Cc1ccc2c(c1)CN(CC[C@H]1CC[C@H](NC(=O)c3cc4ccncc4[nH]3)CC1)CC2', 0.00055),
  ('N#Cc1ccc2c(c1)CN(CC[C@H]1CC[C@H](NC(=O)c3cc4cccnc4[nH]3)CC1)CC2', 0.038),
  ('N#Cc1ccc2c(c1)CN(CC[C@H]1CC[C@H](NC(=O)c3c[nH]c4cnccc34)CC1)CC2', 0.0036);

====

TESTED ON: D(2) dopamine receptor (Homo sapiens) (UniProt P14416)
TEST DESCRIPTION: Negative allosteric modulation of human D2LR expressed in Flp-In-CHO cells assessed as inhibition of dopamine-indued ERK1/2 phosphorylation preincubated for 30 mins followed by dopamine addition and measured after 5 mins by AlphaScreen assay relative to control
Type: cell-based
Recorded fold change (FC) for the following compounds
READOUT NAME: fold change (FC)

INSERT INTO assay_data (structure, readout_name, recorded_measurement) VALUES
  ('N#Cc1ccc2c(c1)CN(CC[C@H]1CC[C@H](NC(=O)c3c[nH]c4ncccc34)CC1)CC2', 'fold change (FC)', 32),
  ('COc1cccc2[nH]c(C(=O)N[C@H]3CC[C@H](CCN4CCc5ccc(C#N)cc5C4)CC3)cc12', 'fold change (FC)', 3),
  ('N#Cc1ccc2c(c1)CN(CC[C@H]1CC[C@H](NC(=O)c3cc4cccc(F)c4[nH]3)CC1)CC2', 'fold change (FC)', 62),
  ('N#Cc1ccc2c(c1)CN(CC[C@H]1CC[C@H](NC(=O)c3cc4ccccn4n3)CC1)CC2', 'fold change (FC)', 33),
  ('N#Cc1ccc2c(c1)CN(CC[C@H]1CC[C@H](NC(=O)c3cnc4ccccn34)CC1)CC2', 'fold change (FC)', 210),
  ('N#Cc1ccc2c(c1)CN(CC[C@H]1CC[C@H](NC(=O)c3c[nH]c4cnccc34)CC1)CC2', 'fold change (FC)', 275),
  ('N#Cc1ccc2c(c1)CN(CC[C@H]1CC[C@H](NC(=O)c3cc4cccnc4[nH]3)CC1)CC2', 'fold change (FC)', 26),
  ('N#Cc1ccc2c(c1)CN(CC[C@H]1CC[C@H](NC(=O)c3cc4c(F)cccc4[nH]3)CC1)CC2', 'fold change (FC)', 32),
  ('N#Cc1ccc2c(c1)CN(CC[C@H]1CC[C@H](NC(=O)c3cc4cc(F)ccc4[nH]3)CC1)CC2', 'fold change (FC)', 63),
  ('N#Cc1ccc2c(c1)CN(CC[C@H]1CC[C@H](NC(=O)c3cc4ccc(F)cc4[nH]3)CC1)CC2', 'fold change (FC)', 15),
  ('N#Cc1ccc2c(c1)CN(CC[C@H]1CC[C@H](NC(=O)c3cc4ccncc4[nH]3)CC1)CC2', 'fold change (FC)', 1800);
